Tested on: MOLT-4 leukemia
Test: NCI tumour cell line growth inhibition, 48 h
MEASURED_PROPERTY: TGI

// worked examples, TGI included
- COMPOUND: "CC/C=C\\C[C@@H](O)C/C=C1/C(=O)C=C[C@H]1C/C=C\\CCCC(=O)OC"
  MEASURED_TARGET: "MOLT-4 leukemia"
  RESULT: "5.83 µM"
- COMPOUND: "CC(C)(C)/C(=N\\Nc1nc2ccccc2[nH]1)c1ccccn1"
  MEASURED_TARGET: "MOLT-4 leukemia"
  RESULT: "> 100 µM"
- COMPOUND: "CCC[CH2][Sn]1([CH2]CCC)[O]C(=O)CN=Cc2c(ccc3ccccc23)[O]1"
  MEASURED_TARGET: "MOLT-4 leukemia"
  RESULT: "1.14 µM"
- COMPOUND: "CCOCc1c(C)cc(C)c(C2C(C(=O)c3ccccc3)N3c4ccccc4C=CC3C2(C#N)C(=O)OCC)c1C (stereo not given)"
  MEASURED_TARGET: "MOLT-4 leukemia"
  RESULT: "> 100 µM"
- COMPOUND: "Nc1cccc(S(=O)(=O)NCC(=O)O)c1"
  MEASURED_TARGET: "MOLT-4 leukemia"
  RESULT: "> 100 µM"
- COMPOUND: "COc1ccc2c(c1)CCCN2c1c2ccccc2nc2ccccc12"
  MEASURED_TARGET: "MOLT-4 leukemia"
  RESULT: "> 100 µM"
- COMPOUND: "CCOC(=O)/C(=C\\c1ccccc1)C(=O)O"
  MEASURED_TARGET: "MOLT-4 leukemia"
  RESULT: "> 100 µM"
- COMPOUND: "O=C(NC12CC3CC(CC(F)(C3)C1)C2)c1ccccc1"
  MEASURED_TARGET: "MOLT-4 leukemia"
  RESULT: "> 100 µM"
- COMPOUND: "COc1ccc(CC2CCc3nc(N)nc(N)c3C2)cc1OC (stereo not given)"
  MEASURED_TARGET: "MOLT-4 leukemia"
  RESULT: "> 100 µM"
- COMPOUND: "C/C(CC(=O)Nc1cc(C)ccc1C)=N\\NC(=O)c1ccncc1"
  MEASURED_TARGET: "MOLT-4 leukemia"
  RESULT: "> 100 µM"

Batch request: TGI per item, same order as input.
1. c1ccc(-c2cn3c(nc4ccccc43)c(-c3ccccc3)n2)cc1
2. COC(=O)c1cc(C)ccc1C1CN=NC12Cc1ccc(C)cc1C2=O (stereo not given)
3. COc1nc(N=P(c2ccccc2)(c2ccccc2)c2ccccc2)cc(=O)[nH]1
4. CC(C)NC(NC(C)C)=C(S(=O)(=O)C(F)(F)C(F)(F)C(F)(F)C(F)(F)F)S(=O)(=O)C(F)(F)C(F)(F)C(F)(F)C(F)(F)F
5. CCOC(=O)c1cc2c([nH]1)c(O)cc1c2ccn1Cc1ccccc1

Found:
1. > 100 µM
2. 80.6 µM
3. > 100 µM
4. > 100 µM
5. 14.1 µM
